Test system: Candida albicans ATCC 10231
Format: cell-based
details: ATCC 10231, 2 h
Ends that are not written are not given here.
Could you please report measured minimum inhibition concentration for the items listed next?
Give bare numbers, in µg/mL.

Per the records, this substance ( YIVYKIRSAWKRRK-OH [BOL-69, YIVYKIRSAWKRRK] ) has minimum inhibition concentration equal to 37.5

Per the records, this substance ( YIVYKIRSAWKRRKALK-OH [BOL-44, YIVYKIRSAWKRRKALK] ) has minimum inhibition concentration equal to 37.5

Per the records, this substance ( YIVYKIRSAKKRWKALK-OH [BOL-57, YIVYKIRSAKKRWKALK] ) has minimum inhibition concentration equal to 300

Moving on to another substance below.
Per the records, this substance ( YIVYKIRWAWKRRKALK-OH [BOL-48, YIVYKIRWAWKRRKALK] ) has minimum inhibition concentration equal to 9.375

----------
System: Candida albicans ATCC 10231
Type: cell-based
details: ATCC 10231, 2 h
Ends that are not written are not given here.
measurement.label: minimum inhibition concentration (µg/mL)
Give bare numbers, in µg/mL.

Per the records, this substance ( YIVYKIRSARKRWK-OH [BOL-71, YIVYKIRSARKRWK] ) has minimum inhibition concentration equal to 300

Each of the following entries comes with a recorded value; kindly state minimum inhibition concentration for each.
1. YIVWKIRSAWKRSKALK-OH [BOL-75, YIVWKIRSAWKRSKALK]
2. YIVYKIRRAWKRRKALK-OH [BOL-54, YIVYKIRRAWKRRKALK]
3. KYIVYKIRSAWKRRKALK-OH [BOL-86, KYIVYKIRSAWKRRKALK]

37.5
18.75
18.75

Per the records, this substance ( YIVYKIRSAWKRWKALK-OH [BOL-45, YIVYKIRSAWKRWKALK] ) has minimum inhibition concentration equal to 18.75

----------
Tested on: Candida albicans ATCC 10231
Format: cell-based
details: ATCC 10231, 2 h
Ends that are not written are not given here.
Could you please report measured minimum inhibition concentration for the items listed next?
Answers are plain numbers, in µg/mL.

Below are worked cases with known answers.
Bench note, Candida albicans ATCC 10231: entry YIVWKIRSARKRRKALK-OH [BOL-74, YIVWKIRSARKRRKALK] , its minimum inhibition concentration = 75

Bench note, Candida albicans ATCC 10231: entry KYIVYKIRWARKRRKALK-OH [BOL-87, KYIVYKIRWARKRRKALK] , its minimum inhibition concentration = 9.375

Bench note, Candida albicans ATCC 10231: entry YIVRKIRSAWKRWKALK-OH [BOL-79, YIVRKIRSAWKRWKALK] , its minimum inhibition concentration = 4.7

Each of the following entries comes with a recorded value; kindly state minimum inhibition concentration for each.
1. KYIVYKIRSAWKRSKALK-OH [BOL-85, KYIVYKIRSAWKRSKALK]
2. YIVYKIRWAWKRKKALK-OH [BOL-61, YIVYKIRWAWKRKKALK]
3. YIVYKIRSAWKRWKAL [BOL-67, YIVYKIRSAWKRWKAL]
4. YIVYKIRWARKRSKALK-OH [BOL-49, YIVYKIRWARKRSKALK]

[75, 9.375, 18.75, 18.75]

Each of the following entries comes with a recorded value; kindly state minimum inhibition concentration for each.
1. YIVRKIRSARKRRKALK-OH [BOL-83, YIVRKIRSARKRRKALK]
2. YIVYKIRSARKRWKAL [BOL-68, YIVYKIRSARKRWKAL]

1. 300
2. 200

Bench note, Candida albicans ATCC 10231: entry YIVYKIRWARKRRK-OH [BOL-73, YIVYKIRWARKRRK] , its minimum inhibition concentration = 9.375

----------
Could you please report measured minimum inhibition concentration for the items listed next?
Test system: Staphylococcus aureus ATCC 25923
Type: cell-based
details: ATCC 25923, 2 h
Ends that are not written are not given here.

Below are worked cases with known answers.
Per the records, this substance ( YIVYKIRSADKRSKALK-OH [Bolisin] ) has minimum inhibition concentration equal to >300 µg/mL

Per the records, this substance ( YIVYKIRWARKRRK-OH [BOL-73, YIVYKIRWARKRRK] ) has minimum inhibition concentration equal to 37.5 µg/mL

Per the records, this substance ( YIVYKIRSAWKRWKALK-OH [BOL-45, YIVYKIRSAWKRWKALK] ) has minimum inhibition concentration equal to 18.75 µg/mL

Each of the following entries comes with a recorded value; kindly state minimum inhibition concentration for each.
1. YIVYKIRSARKRWKAL [BOL-68, YIVYKIRSARKRWKAL]
2. YIVYKIRWAWKRKKALK-OH [BOL-61, YIVYKIRWAWKRKKALK]
3. YIVWKIRSARKRWKALK-OH [BOL-81, YIVWKIRSARKRWKALK]

200 µg/mL
37.5 µg/mL
300 µg/mL

----------
System: Pseudomonas aeruginosa ATCC 9027
Format: cell-based
details: ATCC 9027, 2 h
Ends that are not written are not given here.
measurement.label: minimum inhibition concentration (µg/mL)
Answers are plain numbers, in µg/mL.

Below are worked cases with known answers.
Bench note, Pseudomonas aeruginosa ATCC 9027: entry YIRYKIRSARKRRKALK-OH [BOL-17, YIRYKIRSARKRRKALK] , its minimum inhibition concentration = 200

Bench note, Pseudomonas aeruginosa ATCC 9027: entry YIVYKIRWAWKRKKALK-OH [BOL-61, YIVYKIRWAWKRKKALK] , its minimum inhibition concentration = 300

Bench note, Pseudomonas aeruginosa ATCC 9027: entry YIRYKRRSARKRRKALK-OH [BOL-18, YIRYKRRSARKRRKALK] , its minimum inhibition concentration = 300

Bench note, Pseudomonas aeruginosa ATCC 9027: entry YIVYKIRWARKRWKALK-OH [BOL-51, YIVYKIRWARKRWKALK] , its minimum inhibition concentration = 300

Continuing:
Bench note, Pseudomonas aeruginosa ATCC 9027: entry YIVYKIRWAWKRRKALK-OH [BOL-48, YIVYKIRWAWKRRKALK] , its minimum inhibition concentration = 200

----------
Tested on: Staphylococcus aureus ATCC 25923
Type: cell-based
details: ATCC 25923, 2 h
Ends that are not written are not given here.
Could you please report measured minimum inhibition concentration for the items listed next?
Give bare numbers, in µg/mL.

Below are worked cases with known answers.
Bench note, Staphylococcus aureus ATCC 25923: entry YIVYKIRWAWKRSKAL [BOL-93, YIVYKIRWAWKRSKAL] , its minimum inhibition concentration = 25

Bench note, Staphylococcus aureus ATCC 25923: entry YIVYKIRSADKRRKALK-OH [BOL-7, YIVYKIRSADKRRKALK] , its minimum inhibition concentration = 75

Bench note, Staphylococcus aureus ATCC 25923: entry YIVYKIRWARKRRKAL [BOL-72, YIVYKIRWARKRRKAL] , its minimum inhibition concentration = 75

Each of the following entries comes with a recorded value; kindly state minimum inhibition concentration for each.
1. YIVYKRRSARKRSKALK-OH [BOL-11, YIVYKRRSARKRSKALK]
2. YIVYKIRWARKRWKALK-OH [BOL-51, YIVYKIRWARKRWKALK]
3. YIVWKIRSADKRSKALK-OH [BOL-25, YIVWKIRSADKRSKALK]
4. YIVYKIRWAKKRWKALK-OH [BOL-60, YIVYKIRWAKKRWKALK]
5. YIVYKIRWAWKRSKALK-OH [BOL-47, YIVYKIRWAWKRSKALK]
6. YIVYKIRWADKRSKALK-OH [BOL-27, YIVYKIRWADKRSKALK]
7. YIVYKIRRAWKRWKALK-OH [BOL-55, YIVYKIRRAWKRWKALK]
8. KLAKRRKWAWRIKYVIY [BOL-103, KLAKRRKWAWRIKYVIY]

37.5
37.5
150
50
18.75
75
12.5
18.75

----------
Test system: Pseudomonas aeruginosa ATCC 9027
Assay type: cell-based
details: Mueller Hinton Broth; complete growth inhibition not achieved
Ends that are not written are not given here.
measurement.label: peptide concentration giving 75% inhibition of growth (value in parentheses)

Per the records, this substance ( YIVYKIRWAWKRKKALK-OH [BOL-61, YIVYKIRWAWKRKKALK] ) has peptide concentration giving 75% inhibition of growth (value in parentheses) equal to 75 µg/mL

----------
Could you please report measured log10(minimum inhibition concentration) for the items listed next?
System: Escherichia coli ATCC 25922
Type: cell-based
details: ATCC 25922, 2 h
Ends that are not written are not given here.
Field: value | Transform: log10 | Quantity: minimum inhibition concentration | Unit: mg/L

Below are worked cases with known answers.
Per the records, this substance ( YIVYKIRSAWKRWKALK-OH [BOL-45, YIVYKIRSAWKRWKALK] ) has log10(minimum inhibition concentration) equal to 1.10

Per the records, this substance ( YIVYKRRSARKRRKALK-OH [BOL-15, YIVYKRRSARKRRKALK] ) has log10(minimum inhibition concentration) equal to 1.27

Per the records, this substance ( KLAKRRKWAWRIKYVIY [BOL-103, KLAKRRKWAWRIKYVIY] ) has log10(minimum inhibition concentration) equal to 1.27

Per the records, this substance ( YIVYKIRWAWKRSKAL [BOL-93, YIVYKIRWAWKRSKAL] ) has log10(minimum inhibition concentration) equal to 1.40

Per the records, this substance ( YIVYKIRSADKRRKALK-OH [BOL-7, YIVYKIRSADKRRKALK] ) has log10(minimum inhibition concentration) equal to 2.18

Continuing:
Per the records, this substance ( YIVYKIRWARKRSKALK-OH [BOL-49, YIVYKIRWARKRSKALK] ) has log10(minimum inhibition concentration) equal to 1.70
